Values were extracted from patent US7618978B2.

# target-system: beta-secretase activity (Homo sapiens)
# Construct: endogenous in cells
# Sequence (P56817 46-501): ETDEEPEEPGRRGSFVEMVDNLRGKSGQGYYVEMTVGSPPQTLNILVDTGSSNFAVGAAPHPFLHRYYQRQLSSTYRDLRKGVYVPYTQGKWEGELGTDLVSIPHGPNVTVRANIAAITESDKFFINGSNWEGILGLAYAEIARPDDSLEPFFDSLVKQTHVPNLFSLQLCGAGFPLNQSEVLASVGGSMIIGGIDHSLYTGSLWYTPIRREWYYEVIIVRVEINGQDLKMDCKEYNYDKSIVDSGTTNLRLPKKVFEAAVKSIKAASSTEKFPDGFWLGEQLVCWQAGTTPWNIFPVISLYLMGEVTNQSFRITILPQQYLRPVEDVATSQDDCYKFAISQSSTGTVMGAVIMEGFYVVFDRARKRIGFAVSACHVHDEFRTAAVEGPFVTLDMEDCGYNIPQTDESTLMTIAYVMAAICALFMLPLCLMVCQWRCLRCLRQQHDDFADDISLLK
# protocol: Whole Cell Assay for Measuring the Inhibition of Beta-Secretase Activity
# condition-label: HEK293/APP751sw or HEK293/APP751wt cells, 4 to 6 hours at 37C, Abeta, sAPPbeta-lowering effect by sandwich ELISA
Counter-ions that a name gives are not always drawn.
property-name: IC50

{"compound": "CC(=O)NC(Cc1cc(F)cc(F)c1)C(O)C1CCC(OCc2ccccc2)CN1 (stereo not shown) [Example 19, hydrochloride]", "target-system": "beta-secretase activity (Homo sapiens)", "property-name": "IC50", "measurement": "17.1 µM"}
{"compound": "CCC(C)Nc1cc(C(=O)N[C@@H](Cc2ccccc2)[C@@H](O)[C@H]2CN(C(C)=O)CCN2)cc(N(C)S(C)(=O)=O)n1 (stereo partly shown) [Example 7, hydrochloride]", "target-system": "beta-secretase activity (Homo sapiens)", "property-name": "IC50", "measurement": "0.045 µM"}
{"compound": "CCC(C)Nc1cc(C(=O)NC(Cc2ccccc2)C(O)C2NCCN(C)C2=O)cc(N(C)S(C)(=O)=O)n1 (stereo not shown) [Example 3, hydrochloride]", "target-system": "beta-secretase activity (Homo sapiens)", "property-name": "IC50", "measurement": "0.041 µM"}
{"compound": "CC(=O)N[C@@H](Cc1cc(F)cc(F)c1)[C@H](O)[C@H]1CC[C@@H](OCCC(C)C)CN1 [Example 55, hydrochloride]", "target-system": "beta-secretase activity (Homo sapiens)", "property-name": "IC50", "measurement": "6.1 µM"}
